System: OVCAR-3 ovarian
protocol text: NCI-60 one-dose screen, 48 h (100 = growth as untreated, 0 = no growth, -100 = all killed)
experimental conditions: 10 µM unless noted
Compounds without any hit were thinned out: in the full panel of roughly 83,000, 20% have a hit.
In this section, each of the compounds is paired with its reported growth.
All answers are understood in %, so give the number only.

Could you share what growth was measured for "Clc1ccc2c(NCCCN3CCOCC3)c3oc4ccccc4c3nc2c1" , tested on OVCAR-3 ovarian?
74.2

What value of growth on OVCAR-3 ovarian does "COc1cc(-c2nc3ccc(-c4nnc(SCC(=O)Nc5ccc(C(C)=O)cc5)o4)cc3[nH]2)cc(OC)c1OC" have?
119

Test system OVCAR-3 ovarian; read-out growth; what value for "O=C(CSc1nc2sc3c(c2c(=O)n1-c1ccc(Cl)cc1)CCCC3)N/N=C/c1ccc(F)cc1" ?
133

# value lookup — system OVCAR-3 ovarian, readout growth, item "Cn1cc(-c2cc(N)n3nc(-c4cn(C)c5ccc(Br)cc45)cc3n2)c2cc(Br)ccc21"
109

Could you share what growth was measured for "CCOC(=O)c1c(Nc2ccccc2)nn2c(N)c(C#N)c(-c3ccccc3)nc12" , tested on OVCAR-3 ovarian?
94.5

API: value(readout=growth, system=OVCAR-3 ovarian) for record "CS(=O)(=O)c1ccc(-c2nc3ccccn3c2-c2nc3ccc([N+](=O)[O-])cc3[nH]2)cc1"
110

Give recorded growth with OVCAR-3 ovarian for the following compound: "Nc1c(C(=O)Nc2ccc(C(F)(F)F)cc2)sc2nc(-c3cnccn3)cc(-c3cccs3)c12"
96

Under OVCAR-3 ovarian: growth value of "CC1=C(C)C(=O)C(Nc2ccccc2)=C(Cl)C1=O" ?
102

Quick check: growth on OVCAR-3 ovarian, item "CN(C)CCCNc1c2ccc(Cl)cc2nc2c1oc1ccccc12" ?
31

====

Tested on: MDA-MB-435 melanoma
protocol text: NCI-60 one-dose screen, 48 h
experimental conditions: 10 µM unless noted
Experimental: Growth inhibition of the MDA-MB-435 human Melanoma tumor cell line is measured as a screen for anti-cancer activity. Cells are grown in 96 well plates and exposed to the test compound for 48 hours. Compounds are tested at a single concentration, which is 10^-5 M for most compounds. The reported endpoint is percent growth (GI% or GIPRCNT), where numbers from 0 - 100% represent growth inhibition, and numbers from -100% - 0 represent cell death. […]
This is part of a sample that, as a whole, favours compounds with a hit. Of some 83,000 tested, about 20% had one in any assay. Activity calls are given as the source filed them. The calls were made as follows: active = growth percent below 10; inactive = the rest.
Choose one outcome from this list and give only that: yes (active), no (inactive)

Consider the worked cases shown below.
CC(C)(C)Nc1nc2c(OCCc3ccccc3)cccn2c1-c1cccc(F)c1 :: yes
N#Cc1ccc(C(=O)CSc2nc(Nc3ccc(S(N)(=O)=O)cc3)c3ccccc3n2)cc1 :: no
O=C(N/N=C/c1ccc([N+](=O)[O-])o1)c1[nH]c2ccc(Br)cc2c1-c1ccccc1 :: yes

How was "CN1CCc2c(sc3ncnc(N/N=C/c4ccc(Cl)c(Cl)c4)c23)C1" classified in this test?
no

Tell me the assay call for "COc1ccc(/C=C2\SC(=Nc3cc(C)on3)NC2=O)cc1" please.
no

====

Test system: ACHN renal
protocol text: NCI-60 one-dose screen, 48 h (100 = growth as untreated, 0 = no growth, -100 = all killed)
experimental conditions: 10 µM unless noted
About 83,000 compounds went through this panel and 20% of them were active in at least one assay; those are over-represented in the sample as a whole.
// reported growth for each item listed
Use % as the unit, but write only the number.

In the examples that follow, each entry is paired with its recorded growth.
CN1C(=O)N(c2ccccc2)C2N=C(N/N=C/c3ccccc3)SC21 (stereo not given) :: 49.1
COc1cc2nc(-c3ccc(C(F)(F)F)cc3)cc(OCCCNCC3CCCO3)c2cc1OC (stereo not given) :: 31.9
Cc1cc(=O)oc2cc(OCCCOc3ccc(/C=C/C(=O)Nc4ccc(Cl)cc4)cc3)ccc12 :: 45.3

// fetch ACHN renal growth for "N#Cc1nc(-c2ccccc2)oc1N1CC[C@@H](CO)C1"
95.9
